B1: library; numbered along this chain (parent)
chain: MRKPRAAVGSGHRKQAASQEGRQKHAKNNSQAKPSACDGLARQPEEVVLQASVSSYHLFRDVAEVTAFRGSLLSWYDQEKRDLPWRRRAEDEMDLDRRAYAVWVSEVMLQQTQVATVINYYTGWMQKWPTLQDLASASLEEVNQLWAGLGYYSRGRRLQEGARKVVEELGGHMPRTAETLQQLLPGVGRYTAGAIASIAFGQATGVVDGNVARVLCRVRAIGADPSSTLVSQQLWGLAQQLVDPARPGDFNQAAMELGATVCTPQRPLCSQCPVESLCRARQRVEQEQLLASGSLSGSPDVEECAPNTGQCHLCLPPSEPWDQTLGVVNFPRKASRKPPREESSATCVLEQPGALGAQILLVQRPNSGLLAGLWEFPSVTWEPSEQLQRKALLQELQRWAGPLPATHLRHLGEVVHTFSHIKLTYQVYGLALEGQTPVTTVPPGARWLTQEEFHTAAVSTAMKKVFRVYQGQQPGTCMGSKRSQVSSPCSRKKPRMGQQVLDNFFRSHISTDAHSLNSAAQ

Variants of: B1
Experiment: 8OG:A repair function score (normalized; synonymous = 0, nonsense = -1) (normalized log-likelihood score); higher = more repair activity (WT-like);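 also: cells sorted at 72 h after reporter transfection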
Conditions: with 8OG:A DNA repair reporter (GFP) in HEK-293 MUTYH KO cells
We begin with a simple list: items and their reported 8OG:A repair function score.
// print number alone

Entry V214P , 8OG:A repair function score reported as -1.01

Sure, the documented 8OG:A repair function score for N329P is -0.438

get_value(item= A223M , readout=8OG:A repair function score) returns -0.321

variant R157P , 8OG:A repair function score observed: -1.11

Lab note: A357E gave 8OG:A repair function score of -0.0948
